Cited source: patent US10800785B2

Tested on: DOHH2 cells
PROCEDURE_DETAILS: Cell proliferation assay (MTS) in DOHH2 cells, mechanism-based assay for BTK inhibition
MEASUREMENT_PARAMETERS: Homo sapiens, DOHH-2, 120 h incubation, 5000 cells/well
# pIC50 annotations
Please note pIC50 is a logarithmic value: minus log10 of concentration in mol/L. Answer with that number alone.

C=CC(=O)N1CCC[C@@H](c2cn(-c3ccc(Oc4ccc(F)cc4)cc3)c3c(N)n[nH]c(=O)c23)C1	6.78
CN(C)C/C=C/C(=O)N1CC[C@@H](c2cn(-c3ccc(Oc4ccccc4)cc3)c3c(N)n[nH]c(=O)c23)C1	6.62
C=CC(=O)N1CCC[C@@H](c2nn(-c3ccc(Oc4c(F)cccc4F)cc3)c3c(N)n[nH]c(=O)c23)C1	7.12
C=CC(=O)N1CCC[C@@H](c2cn(-c3ccc(Oc4cc(F)cc(F)c4)cc3)c3c(N)n[nH]c(=O)c23)C1	7.38
CC#CC(=O)N1CC[C@@H](c2cn(-c3ccc(Oc4c(F)cccc4F)cc3)c3c(N)n[nH]c(=O)c23)C1	6.34

Please examine the following record next.
Ask: Under DOHH2 cells: report pIC50 of CC#CC(=O)N1CCC[C@@H](c2nn(-c3ccc(Oc4ccccc4F)cc3)c3c(N)n[nH]c(=O)c23)C1 .
Result: 6.18
